- Test system: MCF7 breast
- measurement-notes: NCI-60 one-dose screen, 48 h
- conditions: 10 µM unless noted
Compounds without any hit were thinned out: in the full panel of roughly 83,000, 20% have a hit. Active and inactive are the calls of the source. The calls were made as follows: active = growth percent below 10; inactive = the rest.
Labels: active, inactive

INSERT INTO assay_data (molecule, measured_on, class_name) VALUES
  ('CC(=O)O[C@H]1Cc2c([nH]c3ccccc23)[C@@H](c2ccc(Cl)cc2)N1C(=O)CCNC(C)(C)C', 'MCF7 breast', 'inactive'),
  ('CC1(C)CC[C@]2(C(=O)O)CC[C@]3(C)C(=CC[C@@H]4[C@@]5(C)Cc6c([nH]c7ccccc67)C(C)(C)[C@@H]5CC[C@]43C)[C@@H]2C1', 'MCF7 breast', 'inactive'),
  ('CCCCOc1ccc(/C=N/Nc2cc(C)nc3ccc(Br)cc23)cc1', 'MCF7 breast', 'active'),
  ('COc1ccccc1NC(=O)C1CC(c2ccc(F)cc2)=NO1 (stereo not drawn)', 'MCF7 breast', 'inactive'),
  ('CC(=O)[C@@H]1CC[C@]2(C(N)=O)CC[C@]3(C)[C@H](CC[C@@H]4[C@@]5(C)CCCNC(C)(C)[C@@H]5CC[C@]43C)[C@@H]12', 'MCF7 breast', 'inactive'),
  ('O=C1Nc2cc(Cl)ccc2/C1=C\c1c(-c2ccc(F)cc2)nc2ccccn12', 'MCF7 breast', 'active'),
  ('COc1cc(F)c(/C=C/c2cc(/C=C/c3cc(OC)c(OC)cc3F)on2)cc1OC', 'MCF7 breast', 'inactive'),
  ('C[C@H]1[C@H](C)CC[C@]2(C(=O)NCC#CCN3CCN(C)CC3)CC[C@]3(C)C(=CC[C@@H]4[C@@]5(C)Cc6c([nH]c7ccccc67)C(C)(C)[C@@H]5CC[C@]43C)[C@H]12', 'MCF7 breast', 'inactive');

Where these numbers come from: PubChem BioAssay (NCI)
